target: Lsa-nAChR1 (α1α2β1β2) (Lepeophtheirus salmonis, UniProt A0A7S5PZ05+A0A7S5Q3W4+A0A7S5Q7H3+A0A7S5U9A3); assay: cell-based; type: cell-based; conditions: read-out: Max peak (% Ach)
Sequence (A0A7S5PZ05 entry or part of it): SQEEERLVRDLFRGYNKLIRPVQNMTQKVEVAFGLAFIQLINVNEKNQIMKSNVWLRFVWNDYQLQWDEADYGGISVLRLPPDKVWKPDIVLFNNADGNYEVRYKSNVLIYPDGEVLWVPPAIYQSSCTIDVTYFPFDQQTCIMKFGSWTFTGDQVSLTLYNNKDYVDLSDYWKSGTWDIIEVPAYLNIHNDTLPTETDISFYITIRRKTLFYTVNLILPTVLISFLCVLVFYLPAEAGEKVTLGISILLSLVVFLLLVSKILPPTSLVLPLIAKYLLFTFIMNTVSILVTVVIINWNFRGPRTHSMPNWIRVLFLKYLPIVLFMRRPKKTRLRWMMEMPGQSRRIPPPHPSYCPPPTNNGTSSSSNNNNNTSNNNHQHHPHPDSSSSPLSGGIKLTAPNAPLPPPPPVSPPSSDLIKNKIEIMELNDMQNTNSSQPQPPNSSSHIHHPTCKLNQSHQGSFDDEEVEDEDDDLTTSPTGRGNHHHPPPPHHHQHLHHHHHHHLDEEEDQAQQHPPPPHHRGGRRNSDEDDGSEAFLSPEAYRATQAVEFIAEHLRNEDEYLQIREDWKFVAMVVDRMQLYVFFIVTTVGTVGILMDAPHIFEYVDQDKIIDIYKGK
Sequence (A0A7S5Q3W4 entry or part of it): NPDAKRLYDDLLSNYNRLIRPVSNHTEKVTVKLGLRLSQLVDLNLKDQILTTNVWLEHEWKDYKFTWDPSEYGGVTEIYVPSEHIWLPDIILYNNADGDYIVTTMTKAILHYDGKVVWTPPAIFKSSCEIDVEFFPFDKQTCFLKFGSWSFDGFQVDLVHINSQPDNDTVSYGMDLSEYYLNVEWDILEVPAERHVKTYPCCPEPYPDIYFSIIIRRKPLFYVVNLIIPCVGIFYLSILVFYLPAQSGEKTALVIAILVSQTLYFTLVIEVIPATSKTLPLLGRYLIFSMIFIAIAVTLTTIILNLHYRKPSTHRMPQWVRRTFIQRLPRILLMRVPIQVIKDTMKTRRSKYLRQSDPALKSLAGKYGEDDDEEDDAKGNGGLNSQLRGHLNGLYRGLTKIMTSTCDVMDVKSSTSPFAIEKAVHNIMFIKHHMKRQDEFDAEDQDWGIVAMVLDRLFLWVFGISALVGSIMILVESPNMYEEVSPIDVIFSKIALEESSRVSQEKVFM
Sequence (A0A7S5U9A3 entry or part of it): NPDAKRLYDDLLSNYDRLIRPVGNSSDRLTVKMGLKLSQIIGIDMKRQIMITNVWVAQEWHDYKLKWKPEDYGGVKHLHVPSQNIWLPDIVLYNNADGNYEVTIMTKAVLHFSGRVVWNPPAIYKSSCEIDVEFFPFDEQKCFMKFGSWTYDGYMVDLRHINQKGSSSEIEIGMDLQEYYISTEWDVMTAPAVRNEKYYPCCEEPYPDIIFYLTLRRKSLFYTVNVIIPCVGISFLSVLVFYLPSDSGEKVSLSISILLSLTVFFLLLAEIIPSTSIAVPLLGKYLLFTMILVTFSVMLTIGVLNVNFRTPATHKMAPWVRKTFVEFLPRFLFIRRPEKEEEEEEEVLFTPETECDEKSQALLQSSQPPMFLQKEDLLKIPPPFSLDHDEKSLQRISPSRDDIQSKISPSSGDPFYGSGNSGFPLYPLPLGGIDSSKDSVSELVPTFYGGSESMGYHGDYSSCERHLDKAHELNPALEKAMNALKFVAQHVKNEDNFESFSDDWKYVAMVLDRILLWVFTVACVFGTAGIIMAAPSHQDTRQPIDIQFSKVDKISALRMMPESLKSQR
Sequence (A0A7S5Q7H3 entry or part of it): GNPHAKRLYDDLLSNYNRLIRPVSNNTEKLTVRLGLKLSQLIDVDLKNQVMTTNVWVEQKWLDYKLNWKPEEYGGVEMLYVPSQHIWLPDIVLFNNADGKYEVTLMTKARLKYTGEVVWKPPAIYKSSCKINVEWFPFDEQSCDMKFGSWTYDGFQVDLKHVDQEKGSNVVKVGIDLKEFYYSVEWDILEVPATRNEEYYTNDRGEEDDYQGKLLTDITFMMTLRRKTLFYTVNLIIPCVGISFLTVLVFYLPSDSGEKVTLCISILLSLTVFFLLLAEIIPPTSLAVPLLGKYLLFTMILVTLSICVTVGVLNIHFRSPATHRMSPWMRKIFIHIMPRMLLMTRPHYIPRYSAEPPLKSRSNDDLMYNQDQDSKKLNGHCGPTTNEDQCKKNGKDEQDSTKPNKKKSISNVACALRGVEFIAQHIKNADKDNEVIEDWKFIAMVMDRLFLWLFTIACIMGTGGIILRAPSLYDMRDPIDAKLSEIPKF
Assay endpoint: Emax (%)
Kindly provide the numeric value in % only, without the unit symbol.

Consider the reported Emax for these molecules:
Molecule | Emax, %
CC(=O)OCC[N+](C)(C)C [Acetylcholine] | 100
O=[N+]([O-])NC1=NCCN1Cc1ccc(Cl)nc1 [Imidacloprid] | 31.8

Input line: Find the recorded Emax belonging to CN/C(=N\[N+](=O)[O-])NCc1cnc(Cl)s1 [Clothianidin] and report it.
Output line: 41.9

Input line: Now give it for CN/C(=N/CC1CCOC1)N[N+](=O)[O-] (centres unmarked) [Dinotefuran] too.
Output line: 69.8

Input line: Now give it for CCN(Cc1ccc(Cl)nc1)/C(=C/[N+](=O)[O-])NC [Nitenpyram] too.
Output line: 27.4
